ASSAY: Compatibility of surfactant with diammonium glyphosate concentrate (no phase separation, 50° C., 1 week)
Format: physicochemical
EXPERIMENTAL CONDITIONS: 37 wt. % a.e. diammonium glyphosate/12 wt. % surfactant; 50° C. oven 1 week
TEST READOUT: Compatible w/37% a.e. diammonium glyphosate at 12 wt % loading

Worked examples, 5 compounds total:
CCCCCCCCN(C)CC(O)C(O)C(O)C(O)CO (centres unmarked) [UU]	No
CCCCCCCCCCCCCCCCCC[N+](C)(C)CC(O)C(O)C(O)C(O)CO (centres unmarked) [YY]	No
CCCCCCCCCCCCNC(CO)(CO)CO [FFF]	No
CCCCCCCCCCCC[N+](C)(C)CC(O)C(O)C(O)C(O)CO (centres unmarked) [XX]	No
CCCCCCN(CCCN(CCCCCC)CC(O)C(O)C(O)C(O)CO)CC(O)C(O)C(O)C(O)CO (centres unmarked) [Surfactant AAA, 1,6 hexylaminoglucitol propane]	Yes

Give the value of Compatible w/37% a.e. diammonium glyphosate at 12 wt % loading reported for the following: CCCCCCCCCCCCCCCCOCCOCCOCCOCCOCCOCCOCCOCCOCCOCCOCCOCCOCCOCCOCCOCCOCCOCCOCCOCCN(C)CC(O)CO (centres unmarked) [QQQ]
No

Give the value of Compatible w/37% a.e. diammonium glyphosate at 12 wt % loading reported for the following: CCCCCCCCCCCCN(C)CC(O)C(O)C(O)C(O)CO (centres unmarked) [RR]
Yes

Give the value of Compatible w/37% a.e. diammonium glyphosate at 12 wt % loading reported for the following: CCCCCCCCCCCCCCCCOCCOCCOCCOCCOCCOCCOCCOCCOCCOCCN(C)CC(O)C(O)C(O)C(O)CO (centres unmarked) [OOO]
Yes

###

The following molecules are shown together with reported Specific Gravity values.
ASSAY: Specific gravity (Mettler DA-300 Density/Specific Gravity Meter)
Format: physicochemical
EXPERIMENTAL CONDITIONS: 20/15.6° C.; 30% a.e. by weight glyphosate monobasic salt solutions
Would you mind answering with just the numeric figure?

Worked examples, 3 molecules total:
CCCN.O=C(O)CNCP(=O)(O)O	1.1429
C[S+](C)C.O=C(O)CNCP(=O)([O-])O [trimethylsulfonium (TMS)]	1.1904
O=C(O)CNCP(=O)([O-])O.[K+] [potassium, glyphosate potassium salt]	1.2539

Give the value of Specific Gravity reported for the following: CCN.O=C(O)CNCP(=O)(O)O
1.1599

Give the value of Specific Gravity reported for the following: NCCO.O=C(O)CNCP(=O)(O)O [monoethanolammonium (MEA)]
1.2357

Give the value of Specific Gravity reported for the following: CN [methylammonium]
1.1667

Give the value of Specific Gravity reported for the following: CC(C)N.O=C(O)CNCP(=O)(O)O [isopropylammonium (IPA)]
1.1554
